Data credit: ChEMBL document CHEMBL1139694

biological target: C-X-C chemokine receptor type 1 (Homo sapiens, UniProt P25024); experiment: Displacement of [125I]IL8 from CXCR1 expressed in CHO cells; assay type: cell-based
Sequence (P25024 whole entry): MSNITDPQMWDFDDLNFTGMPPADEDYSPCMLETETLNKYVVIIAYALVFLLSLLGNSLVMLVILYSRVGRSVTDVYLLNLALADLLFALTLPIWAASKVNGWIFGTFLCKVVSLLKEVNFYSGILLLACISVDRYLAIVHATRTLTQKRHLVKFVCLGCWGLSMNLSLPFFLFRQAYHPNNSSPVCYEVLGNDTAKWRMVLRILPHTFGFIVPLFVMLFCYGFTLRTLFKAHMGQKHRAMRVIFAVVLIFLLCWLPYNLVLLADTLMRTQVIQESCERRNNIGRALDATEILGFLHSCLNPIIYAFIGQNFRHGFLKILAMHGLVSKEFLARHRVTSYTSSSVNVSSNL
# IC50 per entry

Q: Given `CN(C)S(=O)(=O)c1c(Cl)ccc(N=C(NC#N)Nc2ccccc2F)c1O` , state its recorded IC50.
Ans: 1550 nM

Q: What value of IC50 has been recorded for this entry: `Cc1ccccc1NC(=Nc1ccc(Cl)c(S(=O)(=O)N(C)C)c1O)NC#N`
Ans: 378 nM (antagonist)

Q: Please report the recorded IC50 for `CN(C)S(=O)(=O)c1c(Cl)ccc(N=C(NC#N)Nc2cccc(Cl)c2F)c1O` .
Ans: 6200 nM

Q: Entry `CCc1ccccc1NC(=Nc1ccc(Cl)c(S(=O)(=O)N(C)C)c1O)NC#N` has what IC50?
Ans: 512 nM (antagonist)

Q: # IC50 lookup, item `CCC(CC)(NS(=O)(=O)c1c(Cl)ccc(N/C(=N/C#N)Nc2ccccc2Br)c1O)N1CCC(N)CC1`
Ans: 188 nM (antagonist)

Further cases:
Q: What value of measured IC50 is listed for `CN(C)S(=O)(=O)c1c(C(F)(F)F)ccc(N/C(=N/C#N)Nc2ccccc2Br)c1O` ?
Ans: 100 nM (antagonist)

Q: Given `Cc1ccc(N=C(NC#N)Nc2ccccc2Br)c(O)c1S(=O)(=O)N(C)C` , state its recorded IC50.
Ans: 187 nM (antagonist)

Q: Requested read-out: IC50. Entry: `CCC(CC)(NS(=O)(=O)c1c(Cl)ccc(N/C(=N/C#N)Nc2ccccc2Br)c1O)N1CCC[C@@H]1C(=O)O`
Ans: 22 nM (antagonist)

Q: For `CCC(CC)(NS(=O)(=O)c1c(Cl)ccc(N=C(NC#N)Nc2ccccc2C)c1O)N1C[C@@H](C)O[C@@H](C)C1` , what is its reported IC50?
Ans: 1080 nM

Q: Look up IC50: `CN(C)S(=O)(=O)c1c(Cl)ccc(N=C(NC#N)Nc2ccccc2C(F)(F)F)c1O`
Ans: 411 nM (antagonist)

Q: Look at this compound and give its reported IC50. `CCC(CC)(NS(=O)(=O)c1c(Cl)ccc(N/C(=N/C#N)Nc2ccccc2Br)c1O)N1C[C@@H](C)O[C@@H](C)C1`
Ans: 215 nM (antagonist)

Q: Item under review: `CN(C)S(=O)(=O)c1c(Cl)ccc(N/C(=N/C#N)Nc2ccccc2OCc2ccccc2)c1O` . Reported IC50?
Ans: 293 nM (antagonist)

Q: I have this compound here, `CCC(CC)(NS(=O)(=O)c1c(C)ccc(N=C(NC#N)Nc2ccccc2Br)c1O)N1CCOCC1` , and I need its recorded IC50.
Ans: 104 nM (antagonist)

Q: Consider the compound `CCC(CC)(NS(=O)(=O)c1cccc(N/C(=N/C#N)Nc2ccccc2Br)c1O)N1CCOCC1` and give its measured IC50.
Ans: 582 nM (antagonist)

Q: Item `CC(C)c1ccccc1N/C(=N\C#N)Nc1ccc(Cl)c(S(=O)(=O)N(C)C)c1O` has what recorded IC50?
Ans: 7290 nM

Q: Entry `CN(C)S(=O)(=O)c1c(Cl)ccc(N/C(=N/C#N)Nc2ccccc2-c2ccccc2)c1O` has what IC50?
Ans: 752 nM (antagonist)

Q: Query: IC50; subject: `CN(C)S(=O)(=O)c1c(F)ccc(N/C(=N/C#N)Nc2ccccc2Br)c1O`
Ans: 192 nM (antagonist)

Q: Fill in the blank: the reported IC50 of `CN(C)S(=O)(=O)c1c(Cl)ccc(N/C(=N/C#N)Nc2ccccc2Br)c1O` is ____.
Ans: 55 nM (antagonist)
